From: ChEMBL document CHEMBL1122203

experimental.protocol: Percent parent compound extracted at 0.5 hr from plasma using CHCl3/CH3OH.
Type: ADME, cell-free
assay.context: read-out: Extracted
Kindly supply the reported remaining at 0.5 h values for the records listed here.
Return type: number; implicit unit %.

Looking for the measured remaining at 0.5 h of CCC(Cc1c(I)cc(I)c(N)c1I)C(=O)OC1CCC2(C)C(=CCC3C2CCC2(C)C(C(C)=O)CCC32)C1 (stereo not drawn) , can you help?
91.9

Item CCC(Cc1c(I)cc(I)c(N)c1I)C(=O)OC1CCC2(C)C(=CCC3C2CCC2(C)C(C(C)CCCC(C)C)CCC32)C1 (stereo not drawn) has what recorded remaining at 0.5 h?
96

For the compound shown here, CCC(Cc1c(I)cc(I)c(N)c1I)C(=O)OC1CCC2(C)C(=CCC3C4CCC(=O)C4(C)CCC32)C1 (stereo not drawn) , give the reported remaining at 0.5 h.
64.2
